- System: Enterococcus
- experiment: In vitro antimicrobial activity against Vancomycin resistant enterococcus strain BM4147
- Format: functional
Each item that follows carries a reported MIC.
# output: bare number, implied unit µM

Before answering, review these 5 worked examples.
INSERT INTO assay_data (structurenotation, testedon, resultunits, result) VALUES
  ('CC/N=C(\N)CCNC(=O)c1cc(NC(=O)c2ccc(C(=O)Nc3cc(C(=O)NCC/C(N)=N/CC)n(CCC(C)C)c3)cc2)cn1CCC(C)C', 'Enterococcus', 'µM', 1.4),
  ('CCC/N=C(\N)CCNC(=O)c1cc(NC(=O)c2ccc(C(=O)Nc3cc(C(=O)NCC/C(N)=N/CCC)n(CCC(C)C)c3)cc2)cn1CCC(C)C', 'Enterococcus', 'µM', 1.4),
  ('CC(C)CCn1cc(NC(=O)c2ccc(C(=O)Nc3cc(C(=O)NCCC(=N)N)n(CCC(C)C)c3)nc2)cc1C(=O)NCCC(=N)N', 'Enterococcus', 'µM', 0.7),
  ('N=C(N)CCNC(=O)c1cc(NC(=O)c2ccc(C(=O)Nc3cc(C(=O)NCCC(=N)N)n(CC4CC4)c3)nc2)cn1CC1CC1', 'Enterococcus', 'µM', 1.4),
  ('N=C(N)CCNC(=O)c1cc(NC(=O)c2ccc(C(=O)Nc3cc(C(=O)NCCC(=N)N)n(CC4CC4)c3)s2)cn1CC1CC1', 'Enterococcus', 'µM', 1.4);

Sample CC(C)CCn1cc(NC(=O)c2ccc(C(=O)Nc3cc(C(=O)NCCN=C(N)N)n(CCC(C)C)c3)cc2)cc1C(=O)NCCN=C(N)N — what was its MIC?
1.4

Cool, now C/N=C(\N)CCNC(=O)c1cc(NC(=O)c2ccc(C(=O)Nc3cc(C(=O)NCC/C(N)=N/C)n(CCC(C)C)c3)cc2)cn1CCC(C)C
1.4

Cool, now CC(C)CCn1cc(NC(=O)c2cnc(C(=O)Nc3cc(C(=O)NCCC(=N)N)n(CCC(C)C)c3)cn2)cc1C(=O)NCCC(=N)N
2.8

Cool, now CC(C)CCn1cc(NC(=O)c2ccc(C(=O)Nc3cc(C(=O)NCCC(=N)N)n(CCC(C)C)c3)c3ccccc23)cc1C(=O)NCCC(=N)N
2.8

Cool, now N=C(N)CCNC(=O)c1cc(NC(=O)c2cc(C(=O)Nc3cc(C(=O)NCCC(=N)N)n(CC4CC4)c3)[nH]n2)cn1CC1CC1
5.7

Cool, now CC(C)CCn1cc(NC(=O)c2ccnc(C(=O)Nc3cc(C(=O)NCCC(=N)N)n(CCC(C)C)c3)c2)cc1C(=O)NCCC(=N)N
22.7

Cool, now CC(C)CCn1cc(NC(=O)c2ccc(C(=O)Nc3cc(C(=O)NCCC4=NCCCN4)n(CCC(C)C)c3)cc2)cc1C(=O)NCCC1=NCCCN1
0.7

###

- Test system: Nucleic Acid
- experiment: Changes in the DNA melting temperature of an AT-rich dodecamer (CGATTATTAAGC) (GCTTAATAATCG) upon binding of an equimolar amount of compound
- Assay type: nucleic-acid assay
endpoint: ΔTm
Output spec: single numeric token, no unit.

Before answering, review these 3 worked examples.
INSERT INTO results (structurenotation, result) VALUES
  ('CCCn1cc(NC(=O)c2ccc(C(=O)Nc3cc(C(=O)NCCC(=N)N)n(CCC)c3)cc2)cc1C(=O)NCCC(=N)N', 29),
  ('Cn1cc(NC(=O)c2cc(NC(=O)c3cc(NC=O)cn3C)cn2C)cc1C(=O)NCCC(=N)N', 26),
  ('Cn1cc(NC(=O)c2ccc(C(=O)Nc3cc(C(=O)NCCC(=N)N)n(C)c3)cc2)cc1C(=O)NCCC(=N)N', 30);

# evaluate next
Sample CC(C)CCn1cc(NC(=O)c2ccc(C(=O)Nc3cc(C(=O)NCCC(=N)N)n(CCC(C)C)c3)cc2)cc1C(=O)NCCC(=N)N — what was its ΔTm?
28

###

- Test system: Nucleic Acid
- experiment: DNA binding measured as Changes in the DNA melting temperature of an AT-rich dodecamer (CGATTATTAAGC) (GCTTAATAATCG) upon binding of an equimolar amount of compound
- Format: nucleic-acid assay
endpoint: ΔTm (°C)
# output: bare number, implied unit °C

Before answering, review these 4 worked examples.
INSERT INTO assay_data (structurenotation, testedon, endpoint, result) VALUES
  ('CC(C)CCn1cc(NC(=O)c2ccc(C(=O)Nc3cc(C(=O)NCCC4=NCCCN4)n(CCC(C)C)c3)cc2)cc1C(=O)NCCC1=NCCCN1', 'Nucleic Acid', 'ΔTm', 28),
  ('N=C(N)CCNC(=O)c1cc(NC(=O)c2ccc(C(=O)Nc3cc(C(=O)NCCC(=N)N)n(CC4CC4)c3)s2)cn1CC1CC1', 'Nucleic Acid', 'ΔTm', 27),
  ('CC(C)CCn1cc(NC(=O)CCCCC(=O)Nc2cc(C(=O)NCCC(=N)N)n(CCC(C)C)c2)cc1C(=O)NCCC(=N)N', 'Nucleic Acid', 'ΔTm', 10),
  ('Cc1cc(C(=O)Nc2cc(C(=O)NCCC(=N)N)n(CCC(C)C)c2)ccc1C(=O)Nc1cc(C(=O)NCCC(=N)N)n(CCC(C)C)c1', 'Nucleic Acid', 'ΔTm', 24);

Hello, I am looking for reported ΔTm with Nucleic Acid for CC(C)CCn1cc(NC(=O)c2ccc(C(=O)Nc3cc(C(=O)NCCN)n(CCC(C)C)c3)cc2)cc1C(=O)NCCN . Could you help?
20

Cool, now CC(C)CCn1cc(NC(=O)c2ccc(C(=O)Nc3cc(C(=O)NCCC(=N)N)n(CCC(C)C)c3)nc2)cc1C(=O)NCCC(=N)N
25

Cool, now CC/N=C(\N)CCNC(=O)c1cc(NC(=O)c2ccc(C(=O)Nc3cc(C(=O)NCC/C(N)=N/CC)n(CCC(C)C)c3)cc2)cn1CCC(C)C
27

Cool, now N=C(N)CCNC(=O)c1cc(NC(=O)c2cnc(C(=O)Nc3cc(C(=O)NCCC(=N)N)n(CC4CC4)c3)cn2)cn1CC1CC1
23

###

- System: Enterococcus
- experiment: In vitro antimicrobial activity against Vancomycin resistant enterococcus strain BM4147
- Type: functional
Each item that follows carries a reported MIC.
# output: bare number, implied unit µM

Before answering, review these 2 worked examples.
INSERT INTO results (structurenotation, endpoint, result) VALUES
  ('CC(C)CCn1cc(NC(=O)c2ccc(C(=O)Nc3cc(C(=O)NCCC(=N)N)n(CCC(C)C)c3)cc2)cc1C(=O)NCCC(=N)N', 'MIC', 0.7),
  ('C/N=C(/CCNC(=O)c1cc(NC(=O)c2ccc(C(=O)Nc3cc(C(=O)NCC/C(=N/C)NC)n(CCC(C)C)c3)cc2)cn1CCC(C)C)NC', 'MIC', 1.4);

Hello, I am looking for reported MIC with Enterococcus for N=C(N)CCNC(=O)c1cc(NC(=O)c2ccc(C(=O)Nc3cc(C(=O)NCCC(=N)N)n(CC4CC4)c3)cc2)cn1CC1CC1 . Could you help?
2.8

Cool, now Cc1cc(C(=O)Nc2cc(C(=O)NCCC(=N)N)n(CCC(C)C)c2)ccc1C(=O)Nc1cc(C(=O)NCCC(=N)N)n(CCC(C)C)c1
1.4

###

- experiment: Toxicity assessed in human T-cells using a colorimetric cell proliferation assay.
- Type: cell-based
endpoint: NCC (%)
# output: bare number, implied unit %

INSERT INTO assay_data (compound, resultunits, result) VALUES
  ('CC(C)CCn1cc(NC(=O)C2CCC(C(=O)Nc3cc(C(=O)NCCC(=N)N)n(CCC(C)C)c3)CC2)cc1C(=O)NCCC(=N)N (centres undefined)', '%', 88),
  ('CC(C)CCn1cc(NC(=O)CCCCC(=O)Nc2cc(C(=O)NCCC(=N)N)n(CCC(C)C)c2)cc1C(=O)NCCC(=N)N', '%', 87),
  ('CC(C)CCn1cc(NC(=O)c2ccc(C(=O)Nc3cc(C(=O)NCCC(=N)N)n(CCC(C)C)c3)c([N+](=O)[O-])c2)cc1C(=O)NCCC(=N)N', '%', 42);

# evaluate next
Sample N=C(N)CCNC(=O)c1cc(NC(=O)c2ccc(C(=O)Nc3cc(C(=O)NCCC(=N)N)n(CC4CC4)c3)nc2)cn1CC1CC1 — what was its NCC?
82

###

- Tested on: Enterococcus
- experiment: In vitro antimicrobial activity against Vancomycin resistant enterococcus strain UCD-3
- Format: functional
Criterion: MIC strictly under 3 µM. Met: criterion met. Not met: criterion not met.

INSERT INTO measurements (structurenotation, classassignment) VALUES
  ('CC(C)CCn1cc(NC(=O)c2cnc(C(=O)Nc3cc(C(=O)NCCC(=N)N)n(CCC(C)C)c3)cn2)cc1C(=O)NCCC(=N)N', 'criterion met');

is_below(MIC, 3 µM) for CC(C)CCn1cc(NC(=O)c2ccc(C(=O)Nc3cc(C(=O)NCCC(=N)N)n(CCC(C)C)c3)cc2)cc1C(=O)NCCC(=N)N ?
criterion met

Cool, now Cn1cc(NC(=O)c2cc(NC(=O)c3cc(NC=O)cn3C)cn2C)cc1C(=O)NCCC(=N)N
criterion not met

Cool, now CC/N=C(\N)CCNC(=O)c1cc(NC(=O)c2ccc(C(=O)Nc3cc(C(=O)NCC/C(N)=N/CC)n(CCC(C)C)c3)cc2)cn1CCC(C)C
criterion met
